# TEST_METHOD_NOTES: Inhibition of Toxoplasma gondii RH full length CDPK1 expressed in Escherichia coli BL21(DE3) using syntide-2 peptide as substrate after 20 mins by ELISA
# Assay type: cell-free
REPORTED_ENDPOINT: pIC50
FYI, pIC50 means -log10 of a concentration in mol per litre.

[in] Endpoint output: pIC50 of CC(C)n1nc(C(F)c2cccc(Cl)c2Cl)c2c(N)ncnc21 (configuration not stated) . Value?
[out] 7.87

[in] Endpoint output: pIC50 of CC(C)n1nc(Cc2cc(F)cc(Cl)c2)c2c(N)ncnc21 . Value?
[out] 8.34

[in] Endpoint output: pIC50 of CC(C)(C)n1nc(Cc2cccc(Cl)c2Cl)c2c(N)ncnc21 . Value?
[out] 8.47

[in] Endpoint output: pIC50 of CC(C)n1nc(Cc2cccc(Cl)c2F)c2c(N)ncnc21 . Value?
[out] 8.84

[in] Endpoint output: pIC50 of CC(C)n1nc(C(O)c2cccc(Cl)c2Cl)c2c(N)ncnc21 (configuration not stated) . Value?
[out] 6.70

[in] Endpoint output: pIC50 of CC(C)n1nc(Cc2cc(Cl)ccc2F)c2c(N)ncnc21 . Value?
[out] 7.03

[in] Endpoint output: pIC50 of CC(C)(C)n1nc(Cc2cccc(I)c2)c2c(N)ncnc21 . Value?
[out] 7.89

[in] Endpoint output: pIC50 of CC(C)(C)n1nc(-c2ccc3c(c2)OCO3)c2c(N)ncnc21 . Value?
[out] 7.86

[in] Endpoint output: pIC50 of CC(C)n1nc(Cc2cc(F)cc(F)c2)c2c(N)ncnc21 . Value?
[out] 7.29

[in] Endpoint output: pIC50 of Cc1cccc(Cc2nn(C(C)(C)C)c3ncnc(N)c23)c1 . Value?
[out] 8.40

[in] Endpoint output: pIC50 of CC(C)(C)n1nc(Cc2cc(Cl)ccc2F)c2c(N)ncnc21 . Value?
[out] 7.90

[in] Endpoint output: pIC50 of CC(C)(C)n1nc(-c2cccc(OCc3c(Cl)cccc3Cl)c2)c2c(N)ncnc21 . Value?
[out] 5.61

[in] Endpoint output: pIC50 of CC(C)n1nc(Cc2ccc(F)c(Cl)c2)c2c(N)ncnc21 . Value?
[out] 7.88

[in] Endpoint output: pIC50 of CC(C)(C)n1nc(-c2cccc(OCc3ccccc3)c2)c2c(N)ncnc21 . Value?
[out] 6.43

[in] Endpoint output: pIC50 of CC(C)(C)n1nc(Cc2cccc(Br)c2)c2c(N)ncnc21 . Value?
[out] 8.02

[in] Endpoint output: pIC50 of CC(C)n1nc(Cc2cccc(Cl)c2Cl)c2c(N)ncnc21 . Value?
[out] 8.62

[in] Endpoint output: pIC50 of CC(C)(C)n1nc(Cc2ccc(F)c(Cl)c2)c2c(N)ncnc21 . Value?
[out] 8.07

[in] Endpoint output: pIC50 of CC(C)(C)n1nc(Cc2cccc(Cl)c2F)c2c(N)ncnc21 . Value?
[out] 8.13

[in] Endpoint output: pIC50 of CC(C)(C)n1nc(-c2cccc(Oc3ccccc3)c2)c2c(N)ncnc21 . Value?
[out] 7.57

[in] Endpoint output: pIC50 of CC(C)(C)n1nc(Cc2cc(F)cc(Cl)c2)c2c(N)ncnc21 . Value?
[out] 7.88

[in] Endpoint output: pIC50 of CC(C)(C)c1ccc(-c2nn(C(C)(C)C)c3ncnc(N)c23)cc1 . Value?
[out] 5.88

[in] Endpoint output: pIC50 of CC(C)(C)n1nc(Cc2ccc3ccccc3c2)c2c(N)ncnc21 . Value?
[out] 7.45
